target-or-test-system: Diacylglycerol lipase-beta (Homo sapiens) (UniProt Q8NCG7)
Sequence (Q8NCG7 whole entry, looked up): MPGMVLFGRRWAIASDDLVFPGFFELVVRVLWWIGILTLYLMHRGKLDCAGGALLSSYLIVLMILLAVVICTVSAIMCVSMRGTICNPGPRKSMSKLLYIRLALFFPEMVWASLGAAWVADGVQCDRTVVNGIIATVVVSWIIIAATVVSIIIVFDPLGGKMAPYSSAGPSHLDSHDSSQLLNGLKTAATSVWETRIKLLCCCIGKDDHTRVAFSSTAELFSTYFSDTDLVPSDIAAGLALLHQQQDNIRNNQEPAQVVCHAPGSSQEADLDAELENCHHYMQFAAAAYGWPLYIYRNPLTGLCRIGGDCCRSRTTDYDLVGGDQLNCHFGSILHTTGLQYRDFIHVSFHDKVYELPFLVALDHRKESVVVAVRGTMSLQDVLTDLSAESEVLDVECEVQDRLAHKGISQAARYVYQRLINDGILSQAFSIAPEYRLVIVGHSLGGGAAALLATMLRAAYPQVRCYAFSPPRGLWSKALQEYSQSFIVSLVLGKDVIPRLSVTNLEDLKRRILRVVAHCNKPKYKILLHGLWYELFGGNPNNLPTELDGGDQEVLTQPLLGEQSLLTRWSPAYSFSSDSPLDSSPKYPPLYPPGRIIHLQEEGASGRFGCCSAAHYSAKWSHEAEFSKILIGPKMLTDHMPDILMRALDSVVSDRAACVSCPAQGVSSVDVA
experiment: human DAGLB lipase activity inhibition – biochemical, fluorescence, HEK293T membranes, confirmation (AID 504445)
condition-details: HEK293T DAGLB membrane lysate, EnzChek fluorogenic substrate; at 5.17 µM
This is one part of the list. The source made the active and inactive calls.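 How the source made its calls: active means mean inhibition over triplicate wells above a set limit taken from the primary lipase screen (cut at about 34% in these data); inactive means the rest.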
Your answer must be one of the following: active, inactive

As a guide, the following entries are already answered.
Cc1ccc(/C=N/NC(=O)C(NC(=O)c2ccccc2)c2n[nH]c(=O)c3ccccc23)cc1 (centres undefined); inactive
Cc1ccc(S(=O)(=O)/N=C2\C=C(NS(=O)(=O)c3ccc(C)cc3)C(=O)c3ccccc32)cc1; inactive
Cc1oc2cc([N+](=O)[O-])c(O)c([N+](=O)[O-])c2c1C(=O)c1ccc(Br)cc1; active

Here's the next entry for you.
Write down the call the test reported for this molecule. Item: COc1cccc(/C=N/Nc2ccc(S(=O)(=O)Nc3ccccc3C(=O)O)cc2[N+](=O)[O-])c1O active
